Item-by-item account of Ki
target.under.test: human GABAA α1β3γ2 receptor (Homo sapiens (Human), UniProt P14867+P18507)
experiment: Radioligand binding assay, competition for [3H]Flumazenil, γ2-containing GABAA subtype α1β3γ2
cond: HEK293F cell membranes, [3H]Flumazenil 1 nM, mean of two determinations; read-out: Ki h-GABAA α1β3γ2

{"compound": "CCO/C=C/c1cn2c(nc1=O)CN=C(c1c(F)cccc1F)c1c-2ccc(Cl)c1Cl [Example 22]", "relational.operator": "=", "Ki / µM": 1.13}
{"compound": "C[C@@H]1N=C(c2c(F)cccc2F)c2c(ccc(C(F)(F)F)c2Cl)-n2cc(CO)c(=O)nc21 [Example 29]", "relational.operator": "=", "Ki / µM": 13.1}
{"compound": "CCOCCc1cn2c(nc1=O)[C@H](C)N=C(c1c(F)cccc1F)c1c-2ccc(Cl)c1Cl [Example 21]", "relational.operator": "=", "Ki / µM": 1.44}
{"compound": "CCOCCc1cn2c(nc1=O)CN=C(c1c(F)cccc1F)c1c-2ccc(C(F)(F)F)c1Cl [Example 26]", "relational.operator": ">", "Ki / µM": 30}

---

Item-by-item account of Ki
target.under.test: human GABAA α5β2γ1 receptor (Homo sapiens (Human), UniProt P31644+Q8N1C3)
experiment: Radioligand binding assay, competition for [3H]RO7239181, γ1-containing GABAA subtype α5β2γ1
measured.attribute: Ki (nM)

{"molecule": "O=c1ccn2c(n1)CN=C(c1ncccc1F)c1c-2ccc(Cl)c1Cl [Example 3]", "result": 10.3}
{"molecule": "CCc1cn2c(nc1=O)[C@H](C)N=C(c1c(F)cccc1F)c1c-2ccc(Cl)c1Cl [Example 14]", "result": 2.3}
{"molecule": "C[C@@H]1N=C(c2c(F)cccc2F)c2c(ccc(Br)c2Cl)-n2cc(Br)c(=O)nc21 [Example 16]", "result": 1.6}
{"molecule": "C[C@@H]1N=C(c2c(F)cccc2F)c2c(ccc(Cl)c2Br)-n2ccc(=O)nc21 [Example 6]", "result": 4.8}
{"molecule": "Cc1cn2c(nc1=O)[C@H](C)N=C(c1c(F)cccc1F)c1c-2ccc(C(F)(F)F)c1Cl [Example 9]", "result": 3.1}
{"molecule": "O=c1ccn2c(n1)CN=C(c1c(F)cccc1F)c1c-2ccc(Cl)c1Br [Example 17]", "result": 1}

---

target.under.test: h-GABA-A α2β2γ1 (Homo sapiens (Human), UniProt P47869+Q8N1C3)
experiment: Two-electrode voltage clamp electrophysiology in Xenopus oocytes expressing GABAA receptors, modulation of GABA EC20 current
Type: cell-based
cond: Xenopus oocytes, GABA EC20, test compound at approx. 30-fold its Ki α2β2γ1
measured.attribute: Fold increase h-GABA-A α2β2γ1 oocyte @ 30-fold Ki

{"given.smiles": "O=c1nc2n(cc1Br)-c1ccc(Cl)c(Cl)c1C(c1c(F)cccc1F)=NC2", "result": 1.78}
{"given.smiles": "O=c1ccn2c(n1)CN=C(c1ncccc1F)c1c-2ccc(Cl)c1Cl", "result": 2.92}
{"given.smiles": "C[C@@H]1N=C(c2c(F)cccc2F)c2c(ccc(C(F)(F)F)c2Cl)-n2ccc(=O)nc21", "result": 2.64}
{"given.smiles": "CCOCCc1cn2c(nc1=O)CN=C(c1c(F)cccc1F)c1c-2ccc(Cl)c1Cl", "result": 2.20}
{"given.smiles": "C[C@@H]1N=C(c2c(F)cccc2F)c2c(ccc(C(F)(F)F)c2Cl)-n2cc(C(=O)NC3CC3)c(=O)nc21", "result": 1.35}
{"given.smiles": "C[C@@H]1N=C(c2c(F)cccc2F)c2c(ccc(Br)c2Cl)-n2cc(Br)c(=O)nc21", "result": 1.71}
{"given.smiles": "Cc1ccc2c(c1Cl)C(c1c(F)cccc1F)=N[C@@H](C)c1nc(=O)c(C)cn1-2", "result": 2.15}
{"given.smiles": "C[C@@H]1N=C(c2c(F)cccc2F)c2c(ccc(Br)c2Cl)-n2ccc(=O)nc21", "result": 1.7}
{"given.smiles": "O=c1ccn2c(n1)CN=C(c1c(F)cccc1F)c1c-2ccc(Br)c1Cl", "result": 1.65}
{"given.smiles": "CCO/C=C/c1cn2c(nc1=O)CN=C(c1c(F)cccc1F)c1c-2ccc(C(F)(F)F)c1Cl", "result": 1.81}
{"given.smiles": "CCO/C=C/c1cn2c(nc1=O)[C@H](C)N=C(c1c(F)cccc1F)c1c-2ccc(C(F)(F)F)c1Cl", "result": 1.89}
{"given.smiles": "O=c1ccn2c(n1)CN=C(c1c(F)cccc1F)c1c-2ccc(Cl)c1Cl", "result": 1.88}
{"given.smiles": "CNC(=O)c1cn2c(nc1=O)[C@H](C)N=C(c1c(F)cccc1F)c1c-2ccc(C(F)(F)F)c1Cl", "result": 2.13}
{"given.smiles": "O=c1nc2n(cc1Br)-c1ccc(Br)c(Cl)c1C(c1c(F)cccc1F)=NC2", "result": 1.69}
{"given.smiles": "O=c1ccn2c(n1)CN=C(c1c(F)cccc1F)c1c-2ccc(Cl)c1Br", "result": 1.79}
{"given.smiles": "CCOCCc1cn2c(nc1=O)CN=C(c1c(F)cccc1F)c1c-2ccc(C(F)(F)F)c1Cl", "result": 2.13}
